Tested on: SK-OV-3
Assay: NCI screening panel, SK-OV-3 (Ovarian Cancer)
Type: cell-based, human
Method: Representative compounds of Formula I were screened using the National Cancer Institute (NCI) screening panel, which consists of a panel of human tumor cell lines, representing leukemia, melanoma, and cancers of the lung, colon, ovary, breast, prostate and renal system. […] Three dose response parameters are calculated for each experimental agent. […] The drug concentration resulting in total growth inhibition (TGI) is calculated from Ti=Tz. […]
recorded-metric: Log10LC50

- mol: "CC(C)C[C@H](NC(=O)[C@H](COC(F)F)NC(=O)[C@H](COC(F)F)NC(=O)[C@H](COC(F)F)NC(=O)CN1CCOCC1)C(=O)[C@@]1(C)CO1"
  experimental-system: "SK-OV-3"
  measured-value: ">−4.00"
- mol: "CC(C)C[C@H](NC(=O)[C@H](COC(F)F)NC(=O)CN1CCOCC1)C(=O)N[C@@H](COC(F)F)C(=O)N[C@@H](Cc1ccccc1)C(=O)[C@@]1(C)CO1"
  experimental-system: "SK-OV-3"
  measured-value: ">−4.00"
- mol: "CC(C)C[C@H](NC(=O)[C@H](COC(F)F)NC(=O)CN1CCOCC1)C(=O)N[C@@H](Cc1ccccc1)C(=O)N[C@@H](Cc1ccccc1)C(=O)[C@@]1(C)CO1"
  experimental-system: "SK-OV-3"
  measured-value: ">−4.00"
- mol: "CC(C)C[C@H](NC(=O)[C@H](COC(F)F)NC(=O)CN1CCOCC1)C(=O)N[C@@H](Cc1ccccc1)C(=O)N[C@@H](CC(C)C)C(=O)[C@@]1(C)CO1"
  experimental-system: "SK-OV-3"
  measured-value: ">−4.00"
- mol: "CC(C)C[C@H](NC(=O)[C@H](COC(F)F)NC(=O)[C@H](COC(F)F)NC(=O)[C@H](CCc1ccccc1)NC(=O)CN1CCOCC1)C(=O)[C@@]1(C)CO1"
  experimental-system: "SK-OV-3"
  measured-value: ">−4.00"

Let us examine a further case.
Ask: Request: Log10LC50, test system SK-OV-3, entry `CC(C)C[C@H](NC(=O)[C@H](Cc1ccccc1)NC(=O)[C@H](COC(F)F)NC(=O)[C@H](COC(F)F)NC(=O)CN1CCOCC1)C(=O)[C@@]1(C)CO1`
Result: >−4.00
